tested on: HCT-116 colon; test: NCI tumour cell line growth inhibition, 48 h
property.measured: TGI

>>> result("CCn1c2ccccc2c(=O)c2c(OC)ccc(OC)c21")
"> 100 µM"
>>> result("CSc1nn(C)cc2ncnc1-2")
"> 100 µM"
>>> result("NC1CCCCC1N.O=C1C=C/C(=C(/c2ccc(O)c(Br)c2)c2ccccc2S(=O)(=O)[O-])C=C1Br.O=C1C=C/C(=C(/c2ccc(O)c(Br)c2)c2ccccc2S(=O)(=O)[O-])C=C1Br.[Pt+4]")
"> 100 µM"
>>> result("O=C(CSCC(=O)N/N=C/c1ccccc1)N/N=C\\c1ccccc1")
"> 100 µM"
>>> result("COc1cc(C2OC(N)=C(C#N)C3=C2C(C)CCC3)cc(OC)c1OC (stereo unspecified)")
"> 100 µM"
>>> result("N#CCC(=O)N/N=C1/C(=O)N(c2cc(Cl)ccc2Cl)C(=O)C(=O)C1c1nc2ccccc2s1 (stereo unspecified)")
"> 100 µM"
>>> result("COc1ccc2[nH]c3c(c2c1)CC(=O)N1CCCC(CC3O)C1 (stereo unspecified)")
"> 100 µM"
>>> result("COC1(C)C(=O)N2C1N(C(=O)OC(C)(C)C)CC2(C)C (stereo unspecified)")
"> 100 µM"
>>> result("CC(=O)Nc1ccc(C(=O)NN2C(=O)CSC2c2ccc(O)cc2)cc1 (stereo unspecified)")
"> 100 µM"
>>> result("CC1(C)C2CCC1(C)C(OC(=O)/C=C/C(=O)OC1CC3CCC1(C)C3(C)C)C2 (stereo unspecified)")
"> 100 µM"
>>> result("Oc1ccc2c3c1OC1c4[nH]ncc4C[C@H]4[C@@H](C2)N(CC2CC2)CC[C@]314 (stereo partly specified)")
"> 100 µM"
>>> result("CC1(C)N=C(N)N=C(N)N1c1ccc(Cl)cc1")
"> 100 µM"
>>> result("C=C1C(=O)O[C@@H]2/C=C(\\C)CC/C=C(\\C)CC[C@@]12O")
"6.69 µM"
>>> result("O=C(C=P(c1ccccc1)(c1ccccc1)c1ccccc1)CCl")
"1.6 µM"
>>> result("CCc1n[nH]c(=O)n1/N=C(\\C)c1ccc([N+](=O)[O-])cc1")
"> 100 µM"
>>> result("COc1ccc(C(=NN=C(N)N)c2ccc(OC)cc2)cc1")
"12.4 µM"
>>> result("CCOC(=O)Cn1c2ccc(Br)cc2c2nc3ccccc3nc21")
"> 100 µM"
>>> result("COC(=O)C1=C(C)N2CCSC2(C)C(C(=O)OC)C1c1cccc(Cl)c1 (stereo unspecified)")
"34.9 µM"
>>> result("O=C(NCCC1CN(C(=O)OCc2ccccc2)c2ccccc21)OCc1ccccc1 (stereo unspecified)")
"> 100 µM"
>>> result("NS(=O)(=O)c1ccc(Nc2c3ccccc3nc3c(C(=O)N4CCN(CCO)CC4)cccc23)cc1")
"> 100 µM"
>>> result("COC1=C(C)C(=O)c2c(c(CCCl)c3n2CCC3OC(C)=O)C1=O (stereo unspecified)")
"> 22.8 µM"
